Attribute: Stability
assay: Stability of compound in pH 7.4 phosphate buffer at room temperature assessed as prodrug remaining after conversion into active drug CH0793076 after 3 hrs; assay type: physicochemical; conditions: pH 7.4, 3 h
assay_metric: Stability (%)

smi=CCCCCN1C=Nc2cccc3nc4c(c1c23)Cn1c-4cc2c(c1=O)COC(=O)[C@@]2(CC)OC(=O)CN(C)C(=O)C(C)(C)N.Cl assay_metric=Stability readout_value=0
smi=CCCCCN1C=Nc2cccc3nc4c(c1c23)Cn1c-4cc2c(c1=O)COC(=O)[C@@]2(CC)OC(=O)[C@H](C)N(C)C(=O)CN.Cl assay_metric=Stability readout_value=0
smi=CCCCCN1C=Nc2cccc3nc4c(c1c23)Cn1c-4cc2c(c1=O)COC(=O)[C@@]2(CC)OC(=O)OCCS(=O)(=O)CCN.Cl assay_metric=Stability readout_value=4
smi=CCCCCN1C=Nc2cccc3nc4c(c1c23)Cn1c-4cc2c(c1=O)COC(=O)[C@@]2(CC)OC(=O)CNC(=O)CN.Cl assay_metric=Stability readout_value=47
smi=CCCCCN1C=Nc2cccc3nc4c(c1c23)Cn1c-4cc2c(c1=O)COC(=O)[C@@]2(CC)OC(=O)CN(C)C(=O)CN.Cl assay_metric=Stability readout_value=0
smi=CCCCCN1C=Nc2cccc3nc4c(c1c23)Cn1c-4cc2c(c1=O)COC(=O)[C@@]2(CC)OC(=O)OCCS(=O)(=O)C[C@H](N)C(=O)OCC.Cl assay_metric=Stability readout_value=43
smi=CCCCCN1C=Nc2cccc3nc4c(c1c23)Cn1c-4cc2c(c1=O)COC(=O)[C@@]2(CC)OC(=O)CNC(=O)CNC.Cl assay_metric=Stability readout_value=73
smi=CCCCCN1C=Nc2cccc3nc4c(c1c23)Cn1c-4cc2c(c1=O)COC(=O)[C@@]2(CC)OC(=O)CN(C)C(=O)CNC.Cl assay_metric=Stability readout_value=0
